Answer each item with its documented IC50.
molecular target: human KAT II (hKAT II) enzyme (Homo sapiens, UniProt Q8N5Z0); test: KAT II Inhibition Spectra Assay; type: biochemical; conditions: Table 5; hKAT II, decrease in OD370, 37° C., 15-20 h; read-out: KATII IC50
Sequence (Q8N5Z0 30-425): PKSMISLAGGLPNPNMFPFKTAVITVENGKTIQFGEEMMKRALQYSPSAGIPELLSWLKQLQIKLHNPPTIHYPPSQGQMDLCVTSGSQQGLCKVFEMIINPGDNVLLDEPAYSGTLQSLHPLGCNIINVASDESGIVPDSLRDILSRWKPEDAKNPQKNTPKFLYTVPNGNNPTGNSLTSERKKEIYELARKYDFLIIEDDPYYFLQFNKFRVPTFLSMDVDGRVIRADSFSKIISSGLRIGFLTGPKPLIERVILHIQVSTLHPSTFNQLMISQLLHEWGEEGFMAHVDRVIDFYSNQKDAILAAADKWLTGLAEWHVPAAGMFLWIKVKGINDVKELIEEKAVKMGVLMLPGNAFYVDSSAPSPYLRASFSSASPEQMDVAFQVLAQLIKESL
Structures can show the parent of a compound that is named as a salt.
One number for each entry, in µM.

Check out these entries, answers already filled in.
NC1Cc2ccc(-c3ccc(C(F)(F)F)cc3)cc2N(O)C1=O (stereo not drawn) [Example 53, trifluoroacetate salt] : 0.206
CN(C)c1ccc(-c2ccc3c(c2)N(O)C(=O)C(N)C3)cn1 (stereo not drawn) [Example 48, trifluoroacetate salt] : 0.523
Cc1cccc(-c2ccc3c(c2)N(O)C(=O)C(N)C3)c1 (stereo not drawn) [Example 63, trifluoroacetate salt] : 0.113

// each compound listed below needs its IC50
1. C[C@H]1c2ccccc2N(O)C(=O)[C@H]1N [Example 7, hydrochloride salt]
2. NC1Cc2cc(C3CC3)ccc2N(O)C1=O (stereo not drawn)
3. NC1Cc2ncccc2N(O)C1=O (stereo not drawn) [Example 9, dihydrochloride salt]
4. CCc1ccc2c(c1)N(O)C(=O)C(N)C2 (stereo not drawn)
5. NC1Cc2cccc(C(F)(F)F)c2N(O)C1=O (stereo not drawn)
6. CC(C)c1ccc(-c2ccc3c(c2)N(O)C(=O)C(N)C3)cc1 (stereo not drawn) [Example 55, trifluoroacetate salt]

Response:
[3.28, 0.0462, 2.23, 0.088, 0.204, 0.141]

For each of the compounds below, note its IC50.
1. COc1ccc(-c2ccc3c(c2)N(O)C(=O)C(N)C3)cc1F (stereo not drawn) [Example 49, trifluoroacetate salt]
2. NC1Cc2cccnc2N(O)C1=O (stereo not drawn) [Example 1, trifluoroacetate salt]
3. Cc1cccc2c1N(O)C(=O)C(N)C2 (stereo not drawn)
4. N[C@H]1Cc2c(Cl)cccc2N(O)C1=O
5. N[C@H]1Cc2cccc(OC(F)(F)F)c2N(O)C1=O

Response:
1: 0.105; 2: 0.0527; 3: 3.04; 4: 0.0452; 5: 0.0341

Hey, can you go through the list below and give me IC50 for every item?
1. NC1Cc2ccc(-c3cc(Cl)cc(Cl)c3)cc2N(O)C1=O (stereo not drawn) [Example 58, trifluoroacetate salt]
2. NC1Cc2ccc(-c3cccc(C(F)(F)F)c3)cc2N(O)C1=O (stereo not drawn) [Example 46, trifluoroacetate salt]
3. NC1Cc2ccc(-c3ccc4c(c3)CCO4)cc2N(O)C1=O (stereo not drawn) [Example 65, trifluoroacetate salt]
4. NC1Cc2cc(Cl)ccc2N(O)C1=O (stereo not drawn)

Response:
0.174
0.128
0.155
0.0227

All figures here come from patent US8183238B2.
